Here the recorded human PIR RG (% parent) is given for each entry.
Biological target: T1, human parathyroid hormone receptor (PTHR) (human, UniProt Q03431 27-593)
T1 construct: Assayed in membranes of HKRK-B7 cells or of transiently transfected COS-7 cells, or on intact HKRK-B7/HKRK-B64/COS-7 cells; RG = co-transfected with negative-dominant Galpha-s; R0 = receptor alone plus GTPgammaS; also called hPTHR; human PTH receptor
T1 sequence: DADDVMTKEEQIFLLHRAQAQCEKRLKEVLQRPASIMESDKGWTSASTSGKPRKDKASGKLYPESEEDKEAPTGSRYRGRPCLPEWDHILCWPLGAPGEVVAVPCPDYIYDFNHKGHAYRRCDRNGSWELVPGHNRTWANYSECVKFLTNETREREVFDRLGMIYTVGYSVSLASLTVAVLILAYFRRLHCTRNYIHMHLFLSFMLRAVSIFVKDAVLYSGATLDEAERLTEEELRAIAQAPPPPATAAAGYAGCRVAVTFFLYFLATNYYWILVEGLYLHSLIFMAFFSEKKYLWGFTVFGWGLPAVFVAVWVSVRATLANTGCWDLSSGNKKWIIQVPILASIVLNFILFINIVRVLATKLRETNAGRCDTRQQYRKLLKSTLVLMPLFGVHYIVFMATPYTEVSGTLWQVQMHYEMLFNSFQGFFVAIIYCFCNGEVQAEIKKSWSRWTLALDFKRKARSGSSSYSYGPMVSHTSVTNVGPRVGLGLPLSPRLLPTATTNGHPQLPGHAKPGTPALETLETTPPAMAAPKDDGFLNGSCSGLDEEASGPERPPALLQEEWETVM
Test: screen, binding to human PIR RG relative to parent PTHrP(1-28)NH; footnote not given
Ends that are not written are not given here.
Numbers only; they are read as % parent.

Answered cases to consult:
>>> df
                                     binder  reported_result
0  AVSEHQLLHDKGKSIQDERRRKFLHKLI-NH2 [E18,K22,26-PTHrP(1-28)NH]              208
1  AVSEHQLLHDKGKSIQDARRRWFLHKLI-NH2 [A18,W22,K26-PTHrP(1-28)NH]              115

// next entry
Supply reported human PIR RG (% parent) belonging to this binder: AVSEHQLLHDKGKSIQDERRRKFLHALI-NH2 [E18,K22,A26-PTHrP(1-28)NH]
192
